Assay: Viability qHTS for spleen associated tyrosine kinase inhibitor (SYKi) drug resistant MV4-11 cells (AID 1963824); also: nearly all actives have a fitted effect of over 35% in size
Conditions: SYKi-resistant MV4-11 viability, CellTiter-Glo, 72 h; series mostly up to 45 µM
Results filed as inconclusive are left out. Active and inactive are the calls of the source. Calls follow the shape of the dose curve; as a rule, active = well fitted cell-killing curve with a large enough effect; inconclusive = small, poorly fitted or top-dose-only effect, or effect the other way; inactive = no such curve, though single readings can be large or run the other way.
Outcome codes: 1 = active, -1 = inactive

compound | assignedCategory
C=CC(=O)N1CCN(C(=O)c2cc(-c3cc(Cl)ccc3Cl)c(Cl)cc2OC)CC1 | 1
CC(C)c1cccc(C(C)C)c1NC(=O)Nc1ccc(Sc2ccc([N+](=O)[O-])cc2)cc1 | 1
Nc1ccc(S(=O)(=O)Nc2nccs2)cc1 | -1
O=C(c1cc(Cc2n[nH]c(=O)c3ccccc23)ccc1F)N1CCN(C(=O)C2CC2)CC1 | 1
CC(=O)c1ccc(O[C@@H]2OC[C@@H](O)[C@H](O)[C@H]2O[C@]2(CO)O[C@H](CO)[C@@H](O)[C@@H]2O)c(O)c1 | -1
C[C@H]1CO[C@@H]2Cn3cc(C(=O)NCc4ccc(F)cc4F)c(=O)c(O)c3C(=O)N12 | 1
CCOc1ccc(CCNC(=O)c2cc3sc(Cl)cc3n2C)cc1OCC | 1
CC[N+](CC)(CC)CCOc1ccc(/C=C/c2ccccc2)cc1 | -1
Oc1ccccc1-c1nnco1 | -1
CCN(CC)CCNc1ccc2ncn3c4ccc(O)cc4c(=O)c1c23 | 1
O=C(/C=C/c1cccnc1)NCCCCC1CCN(C(=O)c2ccccc2)CC1 | 1
Cc1ccc(C2(COC(=O)C(C)C)CO2)c(OC(=O)C(C)C)c1 (stereo not drawn) | 1
CCCC(=O)O[C@]1(C(=O)CCl)[C@@H](C)C[C@H]2[C@@H]3CCC4=CC(=O)C=C[C@]4(C)[C@@]3(F)C(=O)C[C@@]21C | 1
Nc1nc2c(ncn2COCCO)c(=O)[nH]1 | -1
CC1=CC(=O)CC(C)(C)[C@H]1/C=C/C(CO)O[C@@H]1O[C@H](CO)[C@@H](O)[C@H](O)[C@H]1O (stereo partly drawn) | -1
CC1(C)C(N(O)C(=O)Nc2ccc(Cl)cc2)N(c2ccc(Cl)cc2)C(=O)N1CC(=O)N/N=C/C=C/c1ccc([N+](=O)[O-])o1 (stereo not drawn) | 1
CC1=C2C[C@H]3O[C@@]3(C)CCC3O[C@@]3(C)C[C@@]2(O)OC1=O (stereo partly drawn) | -1
C/C=C/C(=O)N(CC)c1ccccc1C | -1
CCC(c1ccc(O)cc1)C(CC)c1ccc(O)cc1 (stereo not drawn) | 1
CN(C)C(=O)Oc1ccc[n+](C)c1 | -1
C=CC(=O)N1CCCC(n2nc(-c3ccc(Oc4ccccc4)cc3)c3c(N)ncnc32)C1 (stereo not drawn) | 1
CC(=O)OCC(Cc1ccccc1)NC(=O)C(Cc1ccccc1)NC(=O)c1ccccc1 (stereo not drawn) | -1
CCNC(=O)NCCCOc1cccc(CN2CCCCC2)c1 | -1
COc1cc2nc(N3CCCC3)nc(NCCCCCN3CCCC3)c2cc1OC | 1
COc1c(CCC(=O)O)cccc1O[C@@H]1O[C@H](CO)[C@@H](O)[C@H](O)[C@H]1O | -1
Cc1cnc(-c2cnc(NCCNc3ccc(C#N)cn3)nc2-c2ccc(Cl)cc2Cl)[nH]1 | 1
CC12CCC3c4ccc(O)cc4CCC3C1CC(OC1OC(C(=O)O)C(O)C(O)C1O)C2O (stereo not drawn) | -1
CC[C@H](C)[C@@H]([C@@H](CC(=O)N1CCC[C@H]1[C@H](OC)[C@@H](C)C(=O)N[C@@H](Cc1ccccc1)c1nccs1)OC)N(C)C(=O)[C@@H](NC(=O)[C@H](C(C)C)N(C)C)C(C)C | -1
COc1cc(S(N)(=O)=O)cc(C(=O)O)c1OC | -1
COc1ccc2c(c1)CC[C@@H]1[C@@H]2CC[C@]2(C)[C@@H](NCCCCCCN3C(=O)C=CC3=O)CC[C@@H]12 | 1
CS(=O)(=O)c1ccc(-c2nnc(/C=C/c3nnc(-c4ccc(C#N)cc4)o3)n2-c2ccccc2Cl)nc1 | 1
CN(C)S(=O)(=O)c1ccc(NC(=S)N2CCC(C(O)(c3ccccc3)c3ccccc3)CC2)cc1 | 1
O=C(O[C@H]1[C@@H]2C=CO[C@@H](O[C@@H]3O[C@H](CO)[C@@H](O)[C@H](O)[C@H]3O)[C@@H]2[C@@]2(CO)O[C@@H]12)c1ccc(O)cc1 | -1
C=C1[C@H]2CC[C@H](C(=O)O)[C@@]23CC[C@H](C3)C1(C)C | -1
CC1Cc2ccccc2N1NC(=O)c1ccc(Cl)c(S(N)(=O)=O)c1 (stereo not drawn) | -1
O=C(O)C[C@H]1CCc2c1[nH]c1ccc(OCc3ccc(C4CCCC4)c(C(F)(F)F)c3)cc21 | 1
COC(=O)c1ccc([C@H]2c3[nH]c4ccccc4c3C[C@H](C(=O)OC)N2C(=O)CCl)cc1 | 1
CC(=O)c1c(O)cc(O[C@@H]2O[C@H](CO)[C@@H](O)[C@H](O)[C@H]2O)cc1O | -1
